Molecular target: Beta-2 adrenergic receptor (Homo sapiens) (UniProt P07550)
Sequence (P07550 whole entry, looked up): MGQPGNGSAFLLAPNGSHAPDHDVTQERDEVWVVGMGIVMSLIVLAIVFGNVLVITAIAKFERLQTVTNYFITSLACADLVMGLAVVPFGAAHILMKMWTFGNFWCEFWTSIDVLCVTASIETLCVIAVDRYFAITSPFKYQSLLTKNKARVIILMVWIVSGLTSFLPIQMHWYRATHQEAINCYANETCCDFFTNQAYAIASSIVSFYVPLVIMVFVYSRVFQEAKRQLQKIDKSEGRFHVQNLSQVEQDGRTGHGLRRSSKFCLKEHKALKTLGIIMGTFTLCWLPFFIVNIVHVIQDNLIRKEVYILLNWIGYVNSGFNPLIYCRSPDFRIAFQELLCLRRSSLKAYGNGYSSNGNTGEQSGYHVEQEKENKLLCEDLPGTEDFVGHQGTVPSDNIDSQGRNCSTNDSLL
Assay: beta2AR agonists driving receptor internalization, pilot screen, cell-based, FAP fluorogen, flow cytometry, validation set (AID 504459);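 also: agonist-driven loss of surface beta2AR via internalization measured by FAP dye flow cytometry; reference of the scale not given here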
Conditions: Am2.2-beta2AR cells, FAP surface receptor flow cytometry; at 10 µM; active compounds read high
# response per record follows
Return type: number; implicit unit %.

Solved entries:
COP(=O)(OC)C(O)C(Cl)(Cl)Cl (configuration not stated)	-7.88
O=c1c2ccccc2[se]n1-c1ccccc1	12.7
C[C@]12CCC(=O)C=C1CC[C@@H]1[C@@H]2CC[C@]2(C)C(=O)CC[C@@H]12	-0.98
CN[C@H](C)[C@H](O)c1ccccc1	-9.17
NNC(=O)c1ccc(Cl)cc1	7.16
COc1ccc(OC)c(C(O)C(C)N)c1 (configuration not stated)	-5.54
C[C@H]1CCCC(=O)CCC/C=C/c2cc(O)cc(O)c2C(=O)O1	2.24
C#CCN(C)C(C)Cc1ccccc1 (configuration not stated)	-1.41
NCCc1c[nH]c2ccc(F)cc12	1.11
C[C@H](O)[C@H]1CC[C@H]2[C@@H]3CCC4=CC(=O)CC[C@]4(C)[C@H]3CC[C@]12C	-3.16

# response of CCn1c(O)c(C(=O)CC2NCCc3ccccc32)c(=O)n(CC)c1=S (configuration not stated) = 20.4

Summary for this compound, O=S(=O)(c1ccc(F)cc1)N1CCCCC1c1cccnc1 (configuration not stated) : response is -9.47

###

Measured inhibition by item
Target: Botulinum neurotoxin type A (Clostridium botulinum)
Assay: BoNT/A light chain protease inhibitors, biochemical, multiplex microsphere flow cytometry, validation set (AID 588460)
Conditions: at 10 µM, active compounds read high
Calls of active or inactive are those of the source. No rule for the calls is given here.

CC(=O)Oc1cc(C(C)C)c(OCCN(C)C)cc1C	2% (inactive)

Sure, the documented inhibition for O=C1CC(c2ccc(F)cc2)Cc2nc(NCC3CCCO3)ncc21 (configuration not stated) is 0.1% (inactive)

Looking up `NC[C@H]1O[C@H](O[C@H]2[C@H](O)[C@@H](O[C@H]3O[C@H](CO)[C@@H](O)[C@H](N)[C@H]3O)[C@H](N)C[C@@H]2N)[C@H](N)C[C@@H]1O` , I found its inhibition recorded as -1.1% (inactive)

Consider `CNCCc1ccccn1` . Its measured inhibition is 1.1% (inactive)

Input O=C1C(Cc2c[nH]c3ccccc23)NC(=S)N1Cc1ccccc1 (configuration not stated) . Output inhibition: 0.3% (inactive)

Field inhibition (entry `COc1ccc(Cc2noc(CN(C)CCN3CCc4ccccc4C3)n2)cc1OC` ) reads -0.3% (inactive)

###

Target: AP-2 complex subunit beta (Homo sapiens)
Test: inhibitors of arrestin peptide binding to AP2, pilot screen, biochemical, validation set, GST-AP2 beads, flow cytometry (AID 504541);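 also: AP2 carries R879A mutation and is captured from E. coli lysate; bead-bound FITC arrestin peptide fluorescence measuring arrestin peptide binding to AP2; 0% = DMSO wells and 100% = excess unlabeled arrestin peptide control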
Details: FITC arrestin peptide, at 10 µM
Active and inactive are the calls of the source.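 The calls were made as follows: active = inhibition above 54%, about 3 SD of non-fluorescent compounds; inactive = the rest.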
Your response should consist of one outcome taken from active, inactive

Examples with answers:
CN(C)[C@@H]1C(=O)C(C(N)=O)=C(O)[C@@]2(O)C(=O)C3=C(O)c4c(O)cccc4[C@@](C)(O)[C@H]3[C@H](O)[C@@H]12	inactive
NC(=O)CN1CCCC1=O	inactive
C[C@]12CCC(=O)C=C1CC[C@@H]1[C@@H]2C(=O)C[C@]2(C)C(=O)CC[C@@H]12	inactive

Hi, do you know how `C[C@@]1(CO)[C@H](O)CC[C@@]2(C)[C@H]1CC[C@H]1C[C@@H]3C[C@@]12CC[C@]3(O)CO` came out in this test?
active

Record lookup: outcome of this test for `CC(C)[N+](C)(CCC(C(N)=O)(c1ccccc1)c1ccccc1)C(C)C` ?
inactive

Kindly provide the recorded test outcome for the following compound: `CCOC(=O)c1cc2c(cn1)[nH]c1ccccc12`
inactive
